Assay: melting temperature; fluorescence melt of hairpins on a sequencing array, two-state fit, raised by 9.35 °C to match UV melts
Details: sodium 0.088 M
Would you mind telling me the reported Tm of each entry?

Exercise: Using the record for GCGACCAGTCGC ((((....)))) , report its Tm.
Solution: 57.3 °C

Exercise: Quick one: Tm of GTGATCGAAAGATCGCAC ((((((....)))..))) ?
Solution: 51.8 °C

Exercise: # input sequence: GGGGACGAAAGTCTCCCC ((((((....)))..))) ; wanted: its Tm
Solution: 58.2 °C

Exercise: Given the sequence GATCGCTACCGCGATC ((((((....)))))) , what is its reported Tm?
Solution: 68.2 °C

Exercise: Fill in the blank: the reported Tm of GATCCAAAAATGGATC ((((((....)))))) is ____.
Solution: 42.9 °C

Exercise: Return reported Tm; argument: GTATACGAAAGTATGTAC ((((((....)))..)))
Solution: 30.6 °C

Exercise: Give its Tm value. Item: GATGTGGGAAACCATATC (((.(((....))).)))
Solution: 43.2 °C

Exercise: Name the reported Tm value associated with the sequence GCTCGGCGAAAGCCAGC (((.(((....))))))
Solution: 62.9 °C

Exercise: Dear colleague, I am looking for the recorded Tm of the following sequence: GACTTCACGAAAGTGGTC (((..(((....))))))
Solution: 31.4 °C

Exercise: // lookup Tm for GCGCCGCGAAAGCTCCGC (((..((....))..)))
Solution: 44.9 °C

Exercise: Tm lookup needed for GTGCTACCGAAAGGTCAC (((..(((....)))))) , thanks.
Solution: 37 °C

Exercise: Consider the sequence GATACCGGAAACGGCATC (((.(((....))).))) and give its measured Tm.
Solution: 43.8 °C

====

Assay: melting temperature; fluorescence melt of hairpins on a sequencing array, two-state fit, raised by 9.35 °C to match UV melts
Details: sodium 0.088 M
Values of Tm greater than or equal to 50 °C map to label 1; values below map to label 0.

Exercise: Identify whether the reported Tm of the following sequence is 50 °C or greater: GTCGTCCGAAAGGATGAC (((.(((....))).)))
Solution: label 1

Exercise: State whether the measured Tm reaches 50 °C, counting equality as reaching it, for GGCGGCGAAAGCCGCGCC ((((((....)))..)))
Solution: label 1

Exercise: Could you tell me if the measured Tm of GATCTTGAAAAGATC ((((((...)))))) reaches 50 °C or more?
Solution: label 1

Exercise: Exam item: decide whether the reported Tm for GTTGTTGGAAACAACGAC ((.((((....)))).)) is at least 50 °C.
Solution: label 1

Exercise: Determine whether this sequence has Tm no lower than 50 °C: GATCTTCAGAAGATC ((((((...))))))
Solution: label 0

Exercise: Dear colleague, could you confirm whether GGCCGCGAAAGCGACGCC ((((((....)))..))) has Tm at or above 50 °C?
Solution: label 1

Exercise: State whether the measured Tm reaches 50 °C, counting equality as reaching it, for GCGGAGCGAAAGCCCAGC ((.(.((....)).).))
Solution: label 0

Exercise: Confirm if Tm reported for the sequence GAACGGGGAAACCCATTC (((.(((....))).))) is 50 °C or above.
Solution: label 0

Exercise: Form field: Tm at least 50 °C? Entry: GCGTCATGACGC ((((....))))
Solution: label 1

Exercise: Check if Tm >= 50 °C (inclusive). Item: GTCAACGAAAGTTCTGAC ((((((....)))..)))
Solution: label 0

Exercise: Tell me whether Tm is at least 50 °C here: GTCCAGGGAAACTTGGGC (.(((.(....).))).)
Solution: label 0

Exercise: Exam item: decide whether the reported Tm for GGTCCCGAAAGGGCCACC ((((((....)))..))) is at least 50 °C.
Solution: label 1

Exercise: Please tell me: is the sequence CGATAGAAATATCG (((((....))))) at or over 50 °C in terms of Tm?
Solution: label 0

Exercise: Evaluate GATGTCGGAAACGATATC (((.(((....))).))) : Tm at minimum 50 °C?
Solution: label 0

Exercise: hey, is Tm for this one >= 50 °C? GTTGTCGAAAGACGAAC ((((((....))).)))
Solution: label 0

Exercise: Given GCGAGCGGAAACGCCCGC (((.(((....))).))) , state whether its Tm is at least 50 °C.
Solution: label 1

Exercise: Exam item: decide whether the reported Tm for GCGGCGCGAAAGCGTTGC ((..(((....)))..)) is at least 50 °C.
Solution: label 1

Exercise: Identify whether the reported Tm of the following sequence is 50 °C or greater: GCATAGCGAAAGCAACGC ((.(.((....)).).))
Solution: label 0

Exercise: Answer whether Tm of GCTTGGCGAAAGCCGTGC ((..(((....)))..)) is greater than or equal to 50 °C.
Solution: label 1

Exercise: In plain terms: is recorded Tm at least 50 °C for GCTGCTGCGAAAGCAAGC (((..(((....)))))) ?
Solution: label 1

Exercise: Determine whether this sequence has Tm no lower than 50 °C: GTCGTCGAAAGACTAGAC ((((((....)))..)))
Solution: label 0

Exercise: Can GATCGTCACTACGATC ((((((....)))))) be said to have Tm at or above 50 °C?
Solution: label 1

Exercise: I'd appreciate it if you could say whether GCCCTCGAAAGAGCCGGC ((((((....)))..))) has Tm at least equal to 50 °C.
Solution: label 0

Data provenance is the array DNA melting data of Ke et al. (doi:10.1101/2024.01.08.574731).
